Measurement Notes: Permeability of the compound by PAMPA analysis
Type: ADME
Assay Setup: read-out: permeability
# if value of Papp reaches 0.9 ×10⁻⁶ cm/s, tag true (1); if it stays below, tag false (0)

Query :: Determine whether measured Papp meets or exceeds 0.9 ×10⁻⁶ cm/s for CCNc1ccc2c(=O)c3cccc(Cl)c3oc2c1
Result :: true (1)

Query :: Determine whether measured Papp meets or exceeds 0.9 ×10⁻⁶ cm/s for NC1CCN(c2ccc3c(=O)c4cccc(F)c4oc3c2)C1 (stereo unspecified)
Result :: false (0)

Query :: Determine whether measured Papp meets or exceeds 0.9 ×10⁻⁶ cm/s for CC(=O)Nc1ccc2c(=O)c3cccc(F)c3oc2c1
Result :: true (1)

Query :: Determine whether measured Papp meets or exceeds 0.9 ×10⁻⁶ cm/s for CC1c2ccc(N3CCCC3)cc2Oc2c(Cl)cccc21 (stereo unspecified)
Result :: false (0)

Query :: Determine whether measured Papp meets or exceeds 0.9 ×10⁻⁶ cm/s for O=c1c2ccc(N3CCCC3)cc2oc2c(F)cccc12
Result :: true (1)

Query :: Determine whether measured Papp meets or exceeds 0.9 ×10⁻⁶ cm/s for COc1ccc(Cl)c2oc3cc(N4CCC(C(=O)O)C4)ccc3c(=O)c12 (stereo unspecified)
Result :: false (0)

----------
Measurement Notes: Dose normalized AUC (0 to 24 hrs) in C3H/J mouse at 20 mg/kg, po by LC-MS/MS analysis
Format: ADME, organism-based
Assay Setup: in vivo
Value Kind: AUC/dose

Query :: Provide one value: measured AUC/dose of O=C(O)[C@@H]1CCN(c2ccc3c(=O)c4cccc(Cl)c4oc3c2)C1
Result :: 591 (ng·h/mL)/(mg/kg)

----------
Measurement Notes: AUC (0 to infinity) in C3H/J mouse at 5 mg/kg, po by LC-MS/MS analysis
Type: ADME, organism-based
Parameters: time infinity, dose 5 mg/kg, route po
Assay Setup: in vivo
For each entry below, report its AUC(0-inf) value.
Numbers only, in ng·h/mL.

{"columns": ["Compound", "U", "AUC(0-inf)"],
 "data": [
  ["O=C(O)C1CCN(c2ccc3c(=O)c4cccc(Cl)c4oc3c2)C1 (racemic)", "ng·h/mL", 761]
]}

Kindly review the next compound as well.
Query :: Provide one value: measured AUC(0-inf) of O=C(O)[C@@H]1CCN(c2ccc3c(=O)c4cccc(Cl)c4oc3c2)C1
Result :: 857

----------
Measurement Notes: Volume of distribution at steady state in C57BL/6 mouse at 2 mg/kg, iv by LC-MS/MS analysis
Format: ADME, organism-based
Assay Setup: in vivo, read-out: Vdss
Value Kind: Vd
Quick note: unit goes after the number.

Query :: Provide one value: measured Vd of O=C(O)C1CCN(c2ccc3c(=O)c4cccc(Cl)c4oc3c2)C1 (racemic)
Result :: 0.65 L/kg

----------
Measurement Notes: Metabolic stability in human microsomes assessed as clearance
Assay type: ADME, Microsome
Assay Setup: read-out: CLH
Field: label. Allowed values: 1 (CLint scaled < 20 mL/min/kg) or -1 (CLint scaled >= 20 mL/min/kg).

Worked cases, answers included:
{"columns": ["Compound", "Label Class"],
 "data": [
  ["O=C(O)C1CCCN1c1ccc2c(=O)c3cccc(Cl)c3oc2c1 (configuration not stated)", 1],
  ["O=C(O)c1cc2c(=O)c3cccc(Cl)c3oc2cc1N1CCCC1", 1],
  ["O=C1CCCN1c1ccc2c(=O)c3cccc(F)c3oc2c1", -1],
  ["CCNc1ccc2c(=O)c3cccc(Cl)c3oc2c1", 1],
  ["NC1CCN(c2ccc3c(=O)c4cccc(F)c4oc3c2)C1 (configuration not stated)", 1]
]}

Query :: In plain terms, does O=c1c2ccc(N3CCC(O)C3)cc2oc2c(F)cccc12 (configuration not stated) come in under 20 mL/min/kg for CLint scaled?
Result :: 1

----------
Measurement Notes: AUC (0 to 12 hrs) in C3H/J mouse at 300 mg/kg, po by LC-MS/MS analysis
Type: ADME, organism-based
Parameters: time < 12 hr, dose 300 mg/kg, route po
Assay Setup: in vivo
Value Kind: AUC(0-t) at 12 h (µg·h/mL)
Give bare numbers, in µg·h/mL.

Query :: Provide one value: measured AUC(0-t) at 12 h of O=C(O)[C@@H]1CCN(c2ccc3c(=O)c4cccc(Cl)c4oc3c2)C1
Result :: 453

----------
Measurement Notes: AUC (0 to infinity) in C3H/J mouse at 20 mg/kg, po by LC-MS/MS analysis
Format: ADME, organism-based
Design: time infinity, dose 20 mg/kg, route po
Assay Setup: in vivo
Value Kind: AUC(0-inf) (ng·h/mL)
One number for each entry, in ng·h/mL.

Query :: Provide one value: measured AUC(0-inf) of O=C(O)[C@@H]1CCN(c2ccc3c(=O)c4cccc(Cl)c4oc3c2)C1
Result :: 11800

----------
Measurement Notes: Elimination half life in C57BL/6 mouse at 30 mg/kg, po by LC-MS/MS analysis
Type: ADME, organism-based
Assay Setup: in vivo, read-out: beta t1/2 (converted)
Value Kind: half-life (h)
Give bare numbers, in h.

Query :: Provide one value: measured half-life of O=C(O)C1CCN(c2ccc3c(=O)c4cccc(Cl)c4oc3c2)C1 (racemic)
Result :: 4.26

----------
Measurement Notes: Cmax in C57BL/6 mouse at 5 mg/kg, po by LC-MS/MS analysis
Assay type: ADME, organism-based
Parameters: dose 5 mg/kg, route po
Assay Setup: in vivo
Value Kind: Cmax (ng/mL)
One number for each entry, in ng/mL.

Query :: Provide one value: measured Cmax of O=C(O)C1CCN(c2ccc3c(=O)c4cccc(Cl)c4oc3c2)C1 (racemic)
Result :: 1650

----------
For each entry below, report its solubility value.
Measurement Notes: Aqueous solubility of the compound
Format: physicochemical
Assay Setup: buffer

Recorded results for 10 compounds are shown here.
{"columns": ["Compound", "Experimental Value"],
 "data": [
  ["CCN(CC)c1ccc2c(=O)c3cccc(Cl)c3oc2c1", "< 1 µg/mL"],
  ["O=C(O)C1CCN(c2ccc3c(=O)c4c(O)ccc(Cl)c4oc3c2)C1 (stereo unspecified)", "200 µg/mL"],
  ["O=C(O)C1CCN(c2ccc3c(c2)Oc2c(Cl)cccc2S3(=O)=O)C1 (stereo unspecified)", "< 506 µg/mL"],
  ["COc1ccc(Cl)c2oc3cc(N4CCC(C(=O)O)C4)ccc3c(=O)c12 (stereo unspecified)", "> 415 µg/mL"],
  ["O=C(Nc1ccc2c(=O)c3ccccc3oc2c1)c1ccccc1F", "< 1 µg/mL"],
  ["Cc1ccc(Cl)c2oc3cc(N4CCC(C(=O)O)C4)ccc3c(=O)c12 (stereo unspecified)", "252 µg/mL"],
  ["O=C(O)C1CCN(c2cc3oc4c(Cl)cccc4c(=O)c3cc2Cl)C1 (stereo unspecified)", "< 1 µg/mL"],
  ["CCNc1ccc2c(=O)c3cccc(Cl)c3oc2c1", "< 1 µg/mL"],
  ["OC1(C(F)(F)F)c2ccc(N3CCCC3)cc2Oc2c(Cl)cccc21 (stereo unspecified)", "< 1 µg/mL"],
  ["COc1ccccc1C(=O)Nc1ccc2c(=O)c3cccc(F)c3oc2c1", "< 1 µg/mL"]
]}

Kindly review the next compound as well.
Query :: Provide one value: measured solubility of Clc1cccc2c1Oc1cc(N3CCCC3)ccc1C2
Result :: < 1 µg/mL

----------
For each entry below, report its CLint scaled value.
Measurement Notes: Metabolic stability in human microsomes assessed as clearance
Format: ADME, Microsome
Assay Setup: read-out: CLH
Answers are plain numbers, in mL/min/kg.

Recorded results for 5 compounds are shown here.
{"columns": ["Compound", "CLint scaled, mL/min/kg"],
 "data": [
  ["O=c1c2ccc(N3CCCCCC3)cc2oc2c(F)cccc12", 6.2],
  ["O=c1c2ccc(N3CCCC3)cc2oc2c(Cl)cccc12", 18.9],
  ["O=c1c2ccc(N3CCCCC3)cc2oc2c(Cl)cccc12", 20.2],
  ["CCNc1ccc2c(=O)c3cccc(F)c3oc2c1", 22.6],
  ["O=c1c2ccc(N3CCCC3)nc2oc2c(F)cccc12", 20.6]
]}

Value sought for every listed compound: CLint scaled.
1. CN1CCN(c2ccc3c(=O)c4cccc(F)c4oc3c2)CC1
2. CC(=O)Nc1ccc2c(=O)c3cccc(F)c3oc2c1
3. CCN(CC)c1ccc2c(=O)c3cccc(Cl)c3oc2c1
4. O=C(O)C1CCCN(c2ccc3c(=O)c4cccc(Cl)c4oc3c2)C1 (configuration not stated)

Result ::
1. 18
2. 19.7
3. 20.3
4. 6.2

Value sought for every listed compound: CLint scaled.
1. O=C(O)C1CCN(c2ccc3c(=O)c4cccc(Cl)c4oc3c2)C1 (racemic)
2. O=c1c2ccc(N3CCOCC3)cc2oc2c(F)cccc12
3. O=C(O)C1CCN(c2ccc3c(=O)c4cccc(Cl)c4oc3n2)C1 (configuration not stated)

Result ::
[6.2, 20.8, 6.2]
